B1: ZNF649 (parent)
chain: DECEKAYFYMSCLVKHKRIHSREK

# Variants of: B1
# ASSAY_REMARKS: protein stability index of a GFP-peptide fusion (GPS, HEK-293T) (PSI 1-6); higher = more stable;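 further: lentivirally expressed fusions sorted by FACS into six bins by GFP to DsRed ratio, PSI derived from sequencing read proportions per bin multiplied by bin number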
# CONDITION_SUMMARY: c terminus: a fixed tail appended

>  <INPUT_SEQUENCE>
DECEKAYFYMSCLVNHKRIHSREK

>  <protein stability index>
3.16

$$$$
>  <INPUT_SEQUENCE>
DRCEKAYFYMSCLVKHKRIHSREK

>  <protein stability index>
2.08

$$$$
>  <INPUT_SEQUENCE>
DECEKADFYMSCLVKHKRIHSREK

>  <protein stability index>
4.07

$$$$
>  <INPUT_SEQUENCE>
DECIKAYFYMSCLVKHKRIHSREK

>  <protein stability index>
2.17

$$$$
>  <INPUT_SEQUENCE>
DECEKAYFYMSCLVKHKRVHSREK

>  <protein stability index>
3.18

$$$$
>  <INPUT_SEQUENCE>
DECEKAYFYMSCLVKHKRIHSNEK

>  <protein stability index>
2.82

$$$$
>  <INPUT_SEQUENCE>
DECEKAYFYMSCLVKHKMIHSREK

>  <protein stability index>
2.53

$$$$
>  <INPUT_SEQUENCE>
DECEKAYFYMSYLVKHKRIHSREK

>  <protein stability index>
2.43

$$$$
>  <INPUT_SEQUENCE>
DECEKAVFYMSCLVKHKRIHSREK

>  <protein stability index>
2.68

$$$$
>  <INPUT_SEQUENCE>
DECEKAYFYMSCLVKHKRIHSREN

>  <protein stability index>
2.54

$$$$
>  <INPUT_SEQUENCE>
DECEPAYFYMSCLVKHKRIHSREK

>  <protein stability index>
3.51

$$$$
